system: Free fatty acid receptor 1 (Homo sapiens)
assay.name: Agonist activity at human GPR40 expressed in T-REx HEK293 cells assessed as effect on intracellular calcium concentration at 10 uM by FLIPR assay relative to […]
Assay type: functional, cell-based
Exercise: state measured Activity for each of the compounds provided.
Report as a plain number; the unit % is understood.

// returns reported Activity for input `CCN(CCOc1ccc(CCC(=O)O)cc1)c1ccccn1` 147

Also `Cc1ccnc(N(CCOc2ccc(CCCC(=O)O)cc2)c2ccccc2)c1` , if possible. 43

Also `CCCCCCCN(CCOc1ccc(CCC(=O)O)cc1)c1ccccn1` , if possible. 99

Also `Cc1cccc(N(CCOc2ccc(CCCC(=O)O)cc2)c2ccccc2)n1` , if possible. 34

Also `O=C(O)CCCCc1ccc(OCCN(c2ccccc2)c2ccccn2)cc1` , if possible. 99

Also `O=C(O)CCCc1ccc(OCCN(c2ccccc2)c2nc3ccccc3s2)cc1` , if possible. 32

* * *

system: Free fatty acid receptor 1 (Homo sapiens, UniProt O14842)
Sequence (O14842 whole entry): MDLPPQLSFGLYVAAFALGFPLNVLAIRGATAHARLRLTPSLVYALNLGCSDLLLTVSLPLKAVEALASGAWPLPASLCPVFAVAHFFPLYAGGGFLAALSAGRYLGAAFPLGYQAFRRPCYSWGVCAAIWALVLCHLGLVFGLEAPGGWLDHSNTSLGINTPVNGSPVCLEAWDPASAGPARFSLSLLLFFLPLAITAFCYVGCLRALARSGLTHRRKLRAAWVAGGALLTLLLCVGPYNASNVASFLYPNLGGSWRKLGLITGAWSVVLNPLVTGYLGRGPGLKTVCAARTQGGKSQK
assay.name: Agonist activity at human GPR40 expressed in T-REx HEK293 cells assessed as effect on intracellular calcium concentration at 10 uM by FLIPR assay relative to […]
Assay type: functional, cell-based
result.type: Activity (%)
Report as a plain number; the unit % is understood.

State its Activity on Free fatty acid receptor 1 (Homo sapiens, UniProt O14842): `CN(CCOc1ccc(CCC(=O)O)cc1)c1ccccn1` 58

Also `CCCN(CCOc1ccc(CCC(=O)O)cc1)c1ccccn1` , if possible. 125

Also `O=C(O)CCCc1ccc(OCCN(c2ccccc2)c2nccs2)cc1` , if possible. 30

Also `O=C(O)CCCc1ccc(OCCN(c2ccccc2)c2nc3ccccc3o2)cc1` , if possible. 8
